target_or_system: P2X7 receptor (Homo sapiens, UniProt Q99572)
Construct: host or cells: THP-1 cells differentiated with LPS and IFN-γ
Sequence (Q99572 whole entry): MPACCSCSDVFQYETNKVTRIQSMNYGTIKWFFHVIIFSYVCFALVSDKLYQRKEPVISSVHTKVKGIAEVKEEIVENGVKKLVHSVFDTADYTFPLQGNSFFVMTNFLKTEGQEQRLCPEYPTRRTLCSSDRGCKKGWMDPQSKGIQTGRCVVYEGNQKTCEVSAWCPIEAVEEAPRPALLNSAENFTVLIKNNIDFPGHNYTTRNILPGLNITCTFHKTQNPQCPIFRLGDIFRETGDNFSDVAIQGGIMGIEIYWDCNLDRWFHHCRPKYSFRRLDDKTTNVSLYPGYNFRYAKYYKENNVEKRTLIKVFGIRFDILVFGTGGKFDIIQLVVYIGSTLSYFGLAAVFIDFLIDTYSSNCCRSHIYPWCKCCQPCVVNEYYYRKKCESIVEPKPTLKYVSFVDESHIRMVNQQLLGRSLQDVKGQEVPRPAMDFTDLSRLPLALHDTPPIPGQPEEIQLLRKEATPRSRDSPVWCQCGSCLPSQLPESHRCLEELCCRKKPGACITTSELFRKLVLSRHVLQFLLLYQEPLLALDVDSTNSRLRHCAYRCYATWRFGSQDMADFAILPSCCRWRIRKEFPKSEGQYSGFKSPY
measurement_notes: IL-1β release assay in differentiated THP-1 cells stimulated with BzATP (Example 9)
Assay type: cell-based
run_parameters: 0.3 μM compound; differentiated THP-1 cells, BzATP 250 uM; "+" symbols; read-out: IL-1β % Inhib. @ 0.3 or 0.1 uM
endpoint_name: inhibition at 0.3 µM

[[record]]
compound = "CC(C)(CO)n1ccc2c(NC(=O)Cc3ccc(C(F)(F)F)cc3F)cccc2c1=O"
test_result = "> 76%"

[[record]]
compound = "CC(C(=O)Nc1cccc2c(=O)n([C@H](CO)C(N)=O)ccc12)c1ccc(Cl)cc1 (stereo partly shown)"
test_result = "51 to 75%"

[[record]]
compound = "CC(C)[C@H](CO)n1ccc2c(NC(=O)[C@H](C)c3ccc(Cl)cc3)cccc2c1=O"
test_result = "> 76%"

[[record]]
compound = "C[C@H](C(N)=O)n1ccc2c(NC(=O)c3cccc4ncccc34)cccc2c1=O"
test_result = "0 to 25%"

[[record]]
compound = "C[C@H](C(=O)Nc1cccc2c(=O)n([C@H](C)C(=O)O)ccc12)c1ccc(Cl)cc1"
test_result = "26 to 50%"

[[record]]
compound = "C[C@H](C(=O)Nc1cccc2c(=O)n([C@H](C)C(N)=O)ccc12)c1ccc(Cl)c(Cl)c1"
test_result = "> 76%"

[[record]]
compound = "C[C@H](C(N)=O)n1ccc2c(NC(=O)Cc3ccc(Cl)cc3Cl)cccc2c1=O"
test_result = "> 76%"

[[record]]
compound = "Cc1ccc2c(=O)n([C@H](C)CO)ccc2c1NC(=O)Cc1cccc(C(F)(F)F)c1F"
test_result = "> 76%"

[[record]]
compound = "C[C@H](C(N)=O)n1ccc2c(NC(=O)Cc3cc(F)c(F)cc3F)cccc2c1=O"
test_result = "> 76%"

[[record]]
compound = "C[C@H](C(N)=O)n1ccc2c(NC(=O)Cc3ccc(F)c(F)c3)cccc2c1=O"
test_result = "> 76%"

[[record]]
compound = "C[C@H](CO)n1ccc2c(NC(=O)Cc3ccc(Cl)c(F)c3)c(Cl)ccc2c1=O"
test_result = "> 76%"

[[record]]
compound = "C[C@H](C(=O)Nc1cccc2c(=O)n(C(C(N)=O)c3ccc(Cl)cc3)ccc12)c1ccc(Cl)cc1 (stereo partly shown)"
test_result = "51 to 75%"

[[record]]
compound = "CC(C(=O)Nc1cccc2c(=O)n([C@H](C)C(N)=O)ccc12)c1ccc(Cl)cc1 (stereo partly shown)"
test_result = "> 76%"

[[record]]
compound = "C[C@H](C(=O)Nc1cccc2c(=O)n([C@@H](C)C(N)=O)ccc12)c1ccc(Cl)cc1"
test_result = "> 76%"

[[record]]
compound = "C[C@H](CO)n1ccc2c(NC(=O)Cc3cccc(C(F)(F)F)c3F)cccc2c1=O"
test_result = "> 76%"

[[record]]
compound = "O=C(Cc1ccc(Cl)cc1C(F)(F)F)Nc1cccc2c(=O)n(C(CO)CO)ccc12"
test_result = "51 to 75%"


====

Each entry below carries its recorded log10(half-life at 1 μM).
measurement_notes: Half-life in human liver microsomes (HLM)
run_parameters: pH 7.4
endpoint_name: log10(half-life at 1 μM) (log10 of the value in h)

[[record]]
molecule = "C[C@H](CO)n1ccc2c(NC(=O)Cc3ccc(Cl)c(F)c3)cccc2c1=O [Compound 330]"
test_result = 0.15

[[record]]
molecule = "C[C@H](C(=O)Nc1cccc2c(=O)n([C@H](C)C(N)=O)ccc12)c1ccc(Cl)c(Cl)c1 [Compound 268]"
test_result = 0.13

[[record]]
molecule = "C[C@H](CO)n1ccc2c(NC(=O)Cc3ccc(F)c(C(F)(F)F)c3)c(Cl)ccc2c1=O [Compound 377]"
test_result = 0.00

[[record]]
molecule = "Cc1ccc2c(=O)n([C@H](C)CO)ccc2c1NC(=O)Cc1ccc(F)c(C(F)(F)F)c1 [Compound 394]"
test_result = -0.15

[[record]]
molecule = "C[C@H](C(N)=O)n1ccc2c(NC(=O)[C@H](C)c3ccc(Cl)c(Cl)c3)cccc2c1=O [Compound 269]"
test_result = -0.03

[[record]]
molecule = "O=C(Cc1ccc(Cl)c(C(F)(F)F)c1)Nc1cccc2c(=O)n(C[C@@H]3CCCN3)ccc12 [Compound 232]"
test_result = 0.87

[[record]]
molecule = "C[C@H](C(N)=O)n1ccc2c(NC(=O)Cc3ccc(Cl)cc3F)cccc2c1=O [Compound 290]"
test_result = 0.21

[[record]]
molecule = "O=C(Cc1ccc(Cl)c(Cl)c1)Nc1cccc2c(=O)n(CCO)ccc12 [Compound 8]"
test_result = 0.15


====

target_or_system: P2X7 receptor (Homo sapiens, UniProt Q99572)
Construct: host or cells: THP-1 cells differentiated with LPS and IFN-γ
measurement_notes: IL-1β release assay in differentiated THP-1 cells stimulated with BzATP (Example 9)
Format: cell-based
run_parameters: 0.3 μM compound; differentiated THP-1 cells, BzATP 250 uM; "+" symbols; read-out: IL-1β % Inhib. @ 0.3 or 0.1 uM
endpoint_name: inhibition at 0.3 µM

[[record]]
compound = "C[C@H](C(N)=O)n1ccc2c(NC(=O)Cc3ccc(Cl)cc3)cccc2c1=O"
test_result = "> 76%"

[[record]]
compound = "CC(C(=O)Nc1cccc2c(=O)n(C[C@@H]3CCCN3)ccc12)c1ccc(Cl)cc1 (stereo partly shown)"
test_result = "51 to 75%"

[[record]]
compound = "C[C@@H](CO)n1ccc2c(NC(=O)Cc3ccc(Cl)c(Cl)c3)cccc2c1=O"
test_result = "> 76%"

[[record]]
compound = "C[C@H](C(N)=O)n1ccc2c(NC(=O)Cc3cccc(Cl)c3)cccc2c1=O"
test_result = "> 76%"

[[record]]
compound = "C[C@H](C(N)=O)n1ccc2c(NC(=O)Cc3ccc(C(F)(F)F)cc3)cccc2c1=O"
test_result = "> 76%"

[[record]]
compound = "C[C@H](C(N)=O)n1ccc2c(NC(=O)C(C)(C)c3ccc(Cl)cc3)cccc2c1=O"
test_result = "26 to 50%"

[[record]]
compound = "O=C(Cc1ccc(C(F)(F)F)c(F)c1)Nc1cccc2c(=O)n(CCO)ccc12"
test_result = "> 76%"

[[record]]
compound = "CC(C)[C@H](C(=O)NC1CC1)n1ccc2c(NC(=O)[C@H](C)c3ccc(Cl)cc3)cccc2c1=O"
test_result = "> 76%"

[[record]]
compound = "CC(C(=O)Nc1cccc2c(=O)n(C(CO)CO)ccc12)c1ccc(Cl)cc1 (stereo not shown)"
test_result = "26 to 50%"

[[record]]
compound = "C[C@H](C(N)=O)n1ccc2c(NC(=O)Cc3ccc(-c4ccccc4)cc3)cccc2c1=O"
test_result = "> 76%"

[[record]]
compound = "CC(C)(CO)n1ccc2c(NC(=O)Cc3ccc(F)c(Cl)c3)cccc2c1=O"
test_result = "0 to 25%"

[[record]]
compound = "C[C@H](C(N)=O)n1ccc2c(NC(=O)Cc3cccc(C(F)(F)F)c3)cccc2c1=O"
test_result = "> 76%"

[[record]]
compound = "C[C@H](C(N)=O)n1ccc2c(NC(=O)Cc3ccc(Cl)nc3)cccc2c1=O"
test_result = "0 to 25%"

[[record]]
compound = "NC(=O)[C@H](CO)n1ccc2c(NC(=O)Cc3ccc(Cl)c(Cl)c3)cccc2c1=O"
test_result = "26 to 50%"

[[record]]
compound = "C[C@H](CO)n1ccc2c(NC(=O)Cc3ccc(C(F)(F)F)cc3F)c(Cl)ccc2c1=O"
test_result = "> 76%"

[[record]]
compound = "O=C(Cc1ccc(Cl)c(F)c1)Nc1cccc2c(=O)n(CCO)ccc12"
test_result = "> 76%"


====

target_or_system: P2X7 receptor (Homo sapiens)
Construct: host or cells: THP-1 cells differentiated with LPS and IFN-γ
measurement_notes: IL-1β release assay in differentiated THP-1 cells stimulated with BzATP (Example 9)
Format: cell-based
run_parameters: 0.3 μM compound; differentiated THP-1 cells, BzATP 250 uM; "+" symbols; read-out: IL-1β % Inhib. @ 0.3 or 0.1 uM
endpoint_name: inhibition at 0.3 µM

[[record]]
smi = "C[C@H](C(N)=O)n1ccc2c(NC(=O)Cc3ccc(F)cc3Cl)cccc2c1=O"
test_result = "> 76%"

[[record]]
smi = "C[C@H](C(=O)Nc1cccc2c(=O)n([C@@H](C)CO)ccc12)c1ccc(Cl)c(Cl)c1"
test_result = "51 to 75%"

[[record]]
smi = "C[C@H](CO)n1ccc2c(NC(=O)Cc3ccc(F)c(Cl)c3)cccc2c1=O"
test_result = "51 to 75%"

[[record]]
smi = "C[C@H](C(N)=O)n1ccc2c(NC(=O)Cc3cccc(C(F)(F)F)c3F)cccc2c1=O"
test_result = "> 76%"

[[record]]
smi = "CC(C)(CO)n1ccc2c(NC(=O)Cc3ccc(F)c(C(F)(F)F)c3)cccc2c1=O"
test_result = "> 76%"

[[record]]
smi = "C[C@@H](C(=O)Nc1cccc2c(=O)n([C@@H](C)C(N)=O)ccc12)c1ccc(Cl)cc1"
test_result = "> 76%"

[[record]]
smi = "C[C@@H](CO)n1ccc2c(NC(=O)Cc3ccc(F)c(C(F)(F)F)c3)cccc2c1=O"
test_result = "> 76%"

[[record]]
smi = "C[C@@H](CO)n1ccc2c(NC(=O)Cc3ccc(C(F)(F)F)c(F)c3)cccc2c1=O"
test_result = "> 76%"

